Reported Neut IC50 subtype A values for a set of binders
Molecular target: RSV F protein of recombinant mKate-RSV, subtype A (strain A2) (Respiratory syncytial virus subtype A …, UniProt P03420 26-574)
Assay: cell-based or functional assay

{"columns": ["binder", "inequality.symbol", "Neut IC50 subtype A [µg/mL]"],
 "data": [
  ["ADI-14448 (antibody, V domains shown) VH: EVQLVESGGGLVKPGGSLRLSCAASGSSFRYSYMSWVRQAPGKGLQWVASISPSSTYTDYADSVKGRSTISRDHDKISLQVNSLRGDDTAVYYCVRHMNLVMGPFAFDIWGRGTMVTVSS VL: QSVVTQPPSLSGAPGQRITISCTGSSSNIGAGYDVNWYQQLPGTAPKLLIYAKTNRPSGVPERFSGSESGTSASLAITGLQPEDEADYYCQSYDRIGMYVFGTGTKLTVL", "=", 0.043],
  ["ADI-14463 (antibody, V domains shown) VH: QVQLVQSGTEVKKPGASVKVSCKASGYIFDHFAITWVRQAPGQGPEWMGWISAYNGRTEDSGKFPGRLTLTTDPATRTAFLELRGLTPDDTAVYYCARDVPVMGAAFLDYWGQGTLVTVSS VL: EIVLTQSPLSLPVTVGQPASISCRSGQSLEFSDGNTYLTWFHQRPGQSPRRLIYRGSYRDSGVPDRFRGSGSGTTFTLTISRVEAEDVGIYFCMQGTHWPPTFGQGTKVDIK", "=", 0.009],
  ["ADI-14451 (antibody, V domains shown) VH: EVQLVESGAEVRKPGASVKVSCKASGYIFINYYIHWVRQAPGQGLEWMGWINPNSGASNHAQTFEGRITMTTDTSSNTAYMELSRLREDDTAVYYCARSQQLLVITDYSLDYWGLGTLVTVSS VL: SSELTQDPAVSVALGQTVRITCHGDTLRNYYPAWYQQKPGQAPVLVVSDRNTRPSGIPDRFSVSTSGNTASLTITGAQAEDEGDYYCNCRDSSGHRLVFGGGTKLTVL", "=", 0.02],
  ["ADI-14456 (antibody, V domains shown) VH: QVQLVQSGAEVKKPGASVKVSCEASEYSFSGDYVHWVRQAPGQGLEWMGWIKAVNGGANYAQKFHGRVTMTTDSSKSTVYLEMSRLTPADTAIYFCAKDRAASVHVPAGAFDLWGQGTLVTVSS VL: DIQMTQSPSSLSAYVGDRVSITCRASQSIDNFLNWYRQRPGKAPELLIYAASTLQGGVPSRFSGSGSGTHFTLTISSLQPEDFATYYCQQSFTIPSITFGQGTRLEIK", ">", 10]
]}
